- Run description: Cytotoxicity against human Raji cells assessed as cell viability at 10^-7 M relative to control
- Assay type: cell-based
- Test parameters: read-out: Activity
Listed here: items and their measured viability at 0.1 µM.
Unit % implied. Number only.

>>> endpoint_value("C[C@@H]1[C@@H]([C@@H](C)CCCc2cccc(O)c2)O[C@@]23C[C@@H]1OC(=O)C[C@H]([C@@H](C)O)OC(=O)C[C@](O)(O2)[C@H](C)CC3(C)C")
50
>>> endpoint_value("CC1=C2CC(=O)O[C@@H]([C@@H](C)O)CC(=O)O[C@H]3C[C@@](O2)(O[C@H]([C@@H](C)CCCc2cccc(O)c2)[C@H]3C)C(C)(C)C1")
60

// viability at 0.1 µM value for "CO[C@@H](CC[C@H](C)[C@H]1O[C@@]23C[C@H](OC(=O)C[C@H]([C@@H](C)O)OC(=O)C[C@](O)(O2)[C@H](C)CC3(C)C)[C@@H]1C)c1cccc(O)c1" : 50
